# Experimental system: p70S6K (Homo sapiens, UniProt P23443)
# Sequence (P23443 whole entry): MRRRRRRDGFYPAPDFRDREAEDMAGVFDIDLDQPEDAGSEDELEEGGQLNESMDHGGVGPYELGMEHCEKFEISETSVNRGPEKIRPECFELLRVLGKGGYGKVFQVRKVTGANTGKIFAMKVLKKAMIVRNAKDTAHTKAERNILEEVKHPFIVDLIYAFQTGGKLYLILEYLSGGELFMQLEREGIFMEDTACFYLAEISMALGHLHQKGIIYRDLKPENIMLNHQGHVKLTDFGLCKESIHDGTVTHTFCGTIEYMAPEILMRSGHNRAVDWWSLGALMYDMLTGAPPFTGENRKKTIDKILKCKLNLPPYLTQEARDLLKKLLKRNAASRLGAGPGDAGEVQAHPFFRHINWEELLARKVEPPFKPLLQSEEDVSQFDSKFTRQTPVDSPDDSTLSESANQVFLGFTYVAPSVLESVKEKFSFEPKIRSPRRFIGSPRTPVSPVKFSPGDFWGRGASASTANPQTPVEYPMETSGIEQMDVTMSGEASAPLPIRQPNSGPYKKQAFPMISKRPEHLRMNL
# Method description: Luciferase-coupled chemiluminescence kinase assay (ATP consumption)
# Type: biochemical
# Test parameters: Table 1; class symbols per key
Kindly supply the reported IC50 values for the records listed here.

Need IC50, item `Cc1cc(F)c(-c2ccc(F)c(F)c2)cc1N1CCN(c2ncnc3[nH]nc(Br)c23)CC1`
< 100 nM

Same read-out for `CCN(CC)CCCOc1cc(Cl)cc(N2CCN(c3ncnc4[nH]nc(C(F)(F)F)c34)CC2)c1C` ?
< 100 nM

Same read-out for `CC(C)CCNc1c(F)c(F)nc(N2CCN(c3ncnc4[nH]nc(Br)c34)CC2)c1F` ?
100 to 1000 nM

Same read-out for `FC(F)(F)c1ccc(N2CCN(c3ncnc4[nH]nc(Br)c34)CC2)cc1` ?
100 to 1000 nM

Same read-out for `CCc1n[nH]c2ncnc(N3CCN(c4cccc(OC)c4)CC3)c12` ?
100 to 1000 nM

Same read-out for `FC(F)(F)c1ccnc(N2CCN(c3ncnc4[nH]nc(Br)c34)CC2)c1` ?
100 to 1000 nM

Same read-out for `Cc1c(NCCN(C)C)cc(Cl)cc1N1CCN(c2ncnc3[nH]nc(Br)c23)CC1` ?
< 100 nM

Same read-out for `Cc1c(NCCN2CCCC2)cc(OCC2CCCC2)cc1N1CCN(c2ncnc3[nH]nc(Br)c23)CC1` ?
< 100 nM

Same read-out for `Cc1c(OCC2CCN(C)CC2)cc(Cl)cc1N1CCN(c2ncnc3[nH]nc(C(F)(F)F)c23)CC1` ?
< 100 nM

Same read-out for `Cc1c(NCCN2CCCC2)cc(C(=O)N(C)C(C)C)cc1N1CCN(c2ncnc3[nH]nc(Br)c23)CC1` ?
< 100 nM

Same read-out for `Cc1c(NCCN2CCCC2)cc(C(=O)C2CC2)cc1N1CCN(c2ncnc3[nH]nc(Br)c23)CC1` ?
< 100 nM

Same read-out for `FC(F)(F)c1cccnc1N1CCN(c2ncnc3[nH]nc(Br)c23)CC1` ?
100 to 1000 nM

Same read-out for `CCc1n[nH]c2ncnc(N3CCN(c4cc(Cl)cc(OCCN5CCN(CC)CC5)c4C)CC3)c12` ?
< 100 nM

Same read-out for `CCc1n[nH]c2ncnc(N3CCN(c4cc(F)cc(NCCN5CCCC5)c4C)CC3)c12` ?
< 100 nM

Same read-out for `CNC(=O)c1cc(NCCN2CCCC2)c(C)c(N2CCN(c3ncnc4[nH]nc(Br)c34)CC2)c1` ?
< 100 nM

Same read-out for `Cc1c(CCCN2CCCC2)cc(Cl)cc1N1CCN(c2ncnc3[nH]nc(C(F)(F)F)c23)CC1` ?
< 100 nM

Same read-out for `Cc1c(NCCN2CCCC2)cc(C(=O)Nc2cccnc2)cc1N1CCN(c2ncnc3[nH]nc(Br)c23)CC1` ?
< 100 nM

Same read-out for `CCN1CCN(CCCOc2cc(Cl)cc(N3CCN(c4ncnc5[nH]nc(C(F)(F)F)c45)CC3)c2C)CC1` ?
< 100 nM

Same read-out for `Cc1c(OCCN2CCCC2)cc(Cl)cc1N1CCN(c2ncnc3[nH]nc(CC(C)C)c23)CC1` ?
< 100 nM

Same read-out for `Clc1cc(NCCN2CCCC2)cc(N2CCN(c3ncnc4[nH]nc(Br)c34)CC2)c1` ?
< 100 nM

Same read-out for `CCCCC(=O)c1cc(NCCN2CCCC2)c(C)c(N2CCN(c3ncnc4[nH]nc(Br)c34)CC2)c1` ?
< 100 nM

Same read-out for `Clc1cccc(N2CCN(c3ncnc4[nH]nc(Br)c34)CC2)c1Cl` ?
100 to 1000 nM

Same read-out for `CCCC(=O)c1cc(NCCN2CCCC2)cc(N2CCN(c3ncnc4[nH]nc(Br)c34)CC2)c1` ?
< 100 nM

Same read-out for `Cc1c(NCCN(C)C(C)C)cc(Cl)cc1N1CCN(c2ncnc3[nH]nc(Br)c23)CC1` ?
< 100 nM

Same read-out for `CCN(CC)CCOc1cc(Cl)cc(N2CCN(c3ncnc4c3c(C(F)(F)F)nn4C(C)(C)C)CC2)c1C` ?
1000 to 10000 nM

Same read-out for `Clc1cccc(N2CCN(c3ncnc4[nH]nc(Br)c34)CC2)c1` ?
< 100 nM

Same read-out for `Cc1ccc(Cl)cc1N1CCN(c2ncnc3[nH]nc(Br)c23)C[C@H]1C` ?
100 to 1000 nM

Same read-out for `O=[N+]([O-])c1ccc(N2CCN(c3ncnc4[nH]nc(Br)c34)CC2)cc1` ?
100 to 1000 nM

Same read-out for `COc1cc(NCCN2CCCC2)c(C)c(N2CCN(c3ncnc4[nH]nc(Br)c34)CC2)c1` ?
< 100 nM

Same read-out for `Cc1ccc(C(=O)O)cc1N1CCN(c2ncnc3[nH]nc(Br)c23)CC1` ?
< 100 nM

Same read-out for `Cc1c(NCCN2CCCC2)cc(OCC(C)(C)C)cc1N1CCN(c2ncnc3[nH]nc(Br)c23)CC1` ?
< 100 nM

Same read-out for Cc1cccc(N2CCN(c3ncnc4[nH]nc(Br)c34)CC2C)c1 (stereo not drawn) ?
< 100 nM

Same read-out for `Cc1ccc(-c2ccccc2OCCCN(C)C)cc1N1CCN(c2ncnc3[nH]nc(Br)c23)CC1` ?
< 100 nM
